Tgt: HLA-B*07:02
Experiment Summary: IEDB peptide-MHC binding, purified MHC/competitive/fluorescence; filed as Kd, often an IC50 or EC50 that approximates it; bounds were set here for any values at or beyond the usual limits of such assays
Study Conditions: source organism: Human immunodeficiency virus 1

{"Polymer Sequence": "EVKSLFNTV", "Kd": "≥ 20 µM"}

====

Tgt: HLA-B*44:02
Experiment Summary: IEDB peptide-MHC binding, purified MHC/competitive/radioactivity; filed as Kd, often an IC50 or EC50 that approximates it; bounds were set here for any values at or beyond the usual limits of such assays
Study Conditions: source organism: Hepatitis C virus (isolate 1)

{"Polymer Sequence": "HPNIEEVAL", "Tgt": "HLA-B*44:02", "Kd": "≥ 78 µM"}

====

Tgt: HLA-A*03:01
Experiment Summary: IEDB peptide-MHC binding, purified MHC/competitive/radioactivity; filed as Kd, often an IC50 or EC50 that approximates it; bounds were set here for any values at or beyond the usual limits of such assays
Study Conditions: source organism: Vaccinia virus WR
pKd: −log10 of the molar value.
Listing of recorded pKd by entry.
Readout Name: pKd

{"Polymer Sequence": "TLILSNKLLY", "Qualifier Operator": "=", "Measured": 5.89}
{"Polymer Sequence": "GSIKIKQDVR", "Qualifier Operator": "=", "Measured": 5.09}
{"Polymer Sequence": "ELYVSSSYK", "Qualifier Operator": "=", "Measured": 9.14}
{"Polymer Sequence": "TFKIDAVRY", "Qualifier Operator": "≤", "Measured": 4.11}
{"Polymer Sequence": "MTIREFPRK", "Qualifier Operator": "=", "Measured": 8.20}
{"Polymer Sequence": "SSIDVDKRTK", "Qualifier Operator": "=", "Measured": 6.31}
{"Polymer Sequence": "LSKWHTSAR", "Qualifier Operator": "=", "Measured": 5.23}
{"Polymer Sequence": "RTRLYDYFTR", "Qualifier Operator": "=", "Measured": 5.22}
{"Polymer Sequence": "NLTETFRDY", "Qualifier Operator": "≤", "Measured": 4.11}
{"Polymer Sequence": "ITKEIKNRDK", "Qualifier Operator": "=", "Measured": 5.10}
{"Polymer Sequence": "EIKAEMQLK", "Qualifier Operator": "=", "Measured": 5.99}
{"Polymer Sequence": "VSDFRDYQSY", "Qualifier Operator": "≤", "Measured": 4.49}
{"Polymer Sequence": "NLEMIDERKY", "Qualifier Operator": "≤", "Measured": 4.15}

====

Tgt: HLA-B*44:02
Experiment Summary: IEDB peptide-MHC binding, purified MHC/competitive/fluorescence; filed as Kd, often an IC50 or EC50 that approximates it; bounds were set here for any values at or beyond the usual limits of such assays
Study Conditions: source organism: Vibrio parahaemolyticus AQ3810
Readout Name: Kd

{"Polymer Sequence": "HQFTSNPEV", "Tgt": "HLA-B*44:02", "Measured": "≥ 5 µM"}

====

Tgt: HLA-A*68:01
Experiment Summary: IEDB peptide-MHC binding, purified MHC/competitive/radioactivity; filed as Kd, often an IC50 or EC50 that approximates it; bounds were set here for any values at or beyond the usual limits of such assays
Study Conditions: source organism: Vaccinia virus WR
Measured Kd accompanies every entry in the list below.
Readout Name: Kd

{"Polymer Sequence": "SLIKFISDNK", "Readout Name": "Kd", "Measured": "69.1 nM"}
{"Polymer Sequence": "DVRDKRRKY", "Readout Name": "Kd", "Measured": "≥ 53800 nM"}
{"Polymer Sequence": "VTDLENRLKK", "Readout Name": "Kd", "Measured": "≥ 31700 nM"}
{"Polymer Sequence": "KIKQDVRDK", "Readout Name": "Kd", "Measured": "≥ 24900 nM"}
{"Polymer Sequence": "EIKAEMQLK", "Readout Name": "Kd", "Measured": "15.7 nM"}
{"Polymer Sequence": "VSAQNISFK", "Readout Name": "Kd", "Measured": "70.6 nM"}
{"Polymer Sequence": "LSKWHTSAR", "Readout Name": "Kd", "Measured": "20.7 nM"}
{"Polymer Sequence": "SADNHPKMIK", "Readout Name": "Kd", "Measured": "15.1 nM"}
{"Polymer Sequence": "EILKINSVKY", "Readout Name": "Kd", "Measured": "3870 nM"}
{"Polymer Sequence": "ESNIEIMDK", "Readout Name": "Kd", "Measured": "11.2 nM"}
{"Polymer Sequence": "NMKQCTNDIY", "Readout Name": "Kd", "Measured": "2780 nM"}
{"Polymer Sequence": "YTCEDNTGIK", "Readout Name": "Kd", "Measured": "256 nM"}
{"Polymer Sequence": "PIYSHTERDK", "Readout Name": "Kd", "Measured": "14000 nM"}
{"Polymer Sequence": "NLTETFRDY", "Readout Name": "Kd", "Measured": "≥ 37400 nM"}
{"Polymer Sequence": "LTDTEYRAR", "Readout Name": "Kd", "Measured": "≥ 42600 nM"}
{"Polymer Sequence": "SSIDVDKRTK", "Readout Name": "Kd", "Measured": "19.1 nM"}
{"Polymer Sequence": "PFTQHLLNIR", "Readout Name": "Kd", "Measured": "224 nM"}
{"Polymer Sequence": "FASADNHPK", "Readout Name": "Kd", "Measured": "55.7 nM"}
{"Polymer Sequence": "RARFIGGYIK", "Readout Name": "Kd", "Measured": "92.9 nM"}
{"Polymer Sequence": "EILRNYLRLY", "Readout Name": "Kd", "Measured": "512 nM"}
{"Polymer Sequence": "YFSFKKCLVY", "Readout Name": "Kd", "Measured": "578 nM"}
{"Polymer Sequence": "QQLEDIFMR", "Readout Name": "Kd", "Measured": "5480 nM"}
{"Polymer Sequence": "RSTIFDIVSK", "Readout Name": "Kd", "Measured": "79.2 nM"}
{"Polymer Sequence": "DFIRRKYLIY", "Readout Name": "Kd", "Measured": "1100 nM"}
{"Polymer Sequence": "QSVLCVKKFY", "Readout Name": "Kd", "Measured": "5670 nM"}
{"Polymer Sequence": "LILAEYIRHR", "Readout Name": "Kd", "Measured": "1730 nM"}
{"Polymer Sequence": "YIRRNMINK", "Readout Name": "Kd", "Measured": "168 nM"}
{"Polymer Sequence": "ELAELLEMKY", "Readout Name": "Kd", "Measured": "2840 nM"}
{"Polymer Sequence": "VSDFRDYQSY", "Readout Name": "Kd", "Measured": "≥ 51200 nM"}
{"Polymer Sequence": "PLFHGGEPIK", "Readout Name": "Kd", "Measured": "≥ 70200 nM"}
{"Polymer Sequence": "FLLRHYYNKR", "Readout Name": "Kd", "Measured": "1850 nM"}
{"Polymer Sequence": "KMAVEVGSIR", "Readout Name": "Kd", "Measured": "95.8 nM"}
{"Polymer Sequence": "DILTYNKTSK", "Readout Name": "Kd", "Measured": "2970 nM"}
{"Polymer Sequence": "TIKYSNDNRY", "Readout Name": "Kd", "Measured": "956 nM"}
{"Polymer Sequence": "TLILSNKLLY", "Readout Name": "Kd", "Measured": "4330 nM"}
{"Polymer Sequence": "AQQFANVISK", "Readout Name": "Kd", "Measured": "17600 nM"}
{"Polymer Sequence": "ELYVSSSYK", "Readout Name": "Kd", "Measured": "6.71 nM"}
{"Polymer Sequence": "LIHDNIMYTY", "Readout Name": "Kd", "Measured": "566 nM"}
{"Polymer Sequence": "RTRLYDYFTR", "Readout Name": "Kd", "Measured": "1450 nM"}
{"Polymer Sequence": "VMNIERQDYR", "Readout Name": "Kd", "Measured": "153 nM"}
{"Polymer Sequence": "DLTTMPTYK", "Readout Name": "Kd", "Measured": "128 nM"}
{"Polymer Sequence": "KTNSTVDVR", "Readout Name": "Kd", "Measured": "19.9 nM"}
{"Polymer Sequence": "ITKEIKNRDK", "Readout Name": "Kd", "Measured": "2210 nM"}
{"Polymer Sequence": "KVLAARLKR", "Readout Name": "Kd", "Measured": "6.07 nM"}

====

Tgt: HLA-C*05:01
Experiment Summary: IEDB peptide-MHC binding, purified MHC/direct/fluorescence; filed as Kd, often an IC50 or EC50 that approximates it; bounds were set here for any values at or beyond the usual limits of such assays
Study Conditions: source organism: Homo sapiens

{"Polymer Sequence": "MAMGILHTI", "Kd": "≥ 20 µM"}

====

Tgt: HLA-A*02:01
Experiment Summary: IEDB peptide-MHC binding, purified MHC/competitive/fluorescence; bounds were set here for any values at or beyond the usual limits of such assays
Study Conditions: source organism: Mycobacterium leprae

{"Polymer Sequence": "RLDGTTLEV", "IC50": "35 nM"}

All values here come from the Immune Epitope Database (IEDB).
